system: Retinal dehydrogenase 2 (Homo sapiens)
assay.text: qHTS for Inhibitors of the Aldehyde Dehydrogenase Family (ALDH1A2) Validation screens
conditions: fluorescence read-out; ALDH1A2 inhibition qHTS validation; series mostly up to 49.8 µM
Inconclusive results are not listed. Calls of active or inactive are those of the source. Calls come from the whole dose curve; as a rule, active = well fitted curve in the direction sought with a large enough effect; inconclusive = small, poorly fitted or top-dose-only effect, or another doubt; inactive = no such curve, though single readings can be large or run the other way.
The reply should be one of these categories: Yes = active, No = inactive

| compound | class |
| --- | --- |
| O=C(OC1C[C@@H]2CC3C[C@H](C1)N2CC3=O)c1c[nH]c2ccccc12 (stereo not given in full) | No |
| CC(C)(C)c1ccc(S(=O)(=O)/C=C/C#N)cc1 | Yes |
| CCCN(CCC)C(=O)Cn1c(=O)n(-c2ccc(C)cc2)c(=O)c2ccc(C(=O)NCc3ccccc3Cl)cc21 | No |
| CCOC(=O)CSc1nc2c(sc3ccccc32)c(=O)n1CCCN1CCCC1 | No |

Now take the following compound into account.
Exam item: What outcome does the record of this test show for CCOc1ccc(-c2cc(C(=O)N3CCN(c4ccccn4)CC3)c3ccccc3n2)cc1 ?
Marked response: No
